Molecular target: human orexin-2 receptor (Homo sapiens)
Construct: expressed in transfected cells; host or cells: Chinese hamster ovary (CHO) cells
Sequence (O43614 whole entry): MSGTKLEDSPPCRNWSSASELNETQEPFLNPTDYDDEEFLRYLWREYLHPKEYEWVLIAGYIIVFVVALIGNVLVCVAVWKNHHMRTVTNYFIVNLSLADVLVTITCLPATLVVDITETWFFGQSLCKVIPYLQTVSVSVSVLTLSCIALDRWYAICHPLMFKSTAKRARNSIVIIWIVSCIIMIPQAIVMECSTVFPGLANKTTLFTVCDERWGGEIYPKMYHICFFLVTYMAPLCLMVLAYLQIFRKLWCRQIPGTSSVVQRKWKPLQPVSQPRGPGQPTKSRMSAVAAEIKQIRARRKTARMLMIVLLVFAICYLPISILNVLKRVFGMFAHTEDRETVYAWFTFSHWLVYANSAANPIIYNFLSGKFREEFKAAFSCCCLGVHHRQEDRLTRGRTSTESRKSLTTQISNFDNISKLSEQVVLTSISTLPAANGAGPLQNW
Assay: FLIPR calcium assay of orexin receptor antagonistic activity, CHO cells expressing the human orexin-2 receptor
Assay type: cell-based
Conditions: 3 nM orexin-A as agonist; value not normalized; read-out: OX2 IC50
pIC50: −log10 of the molar value.
PARAMETER: pIC50

Example cases with answers are listed next.
>>> numeric_readout("CNC(=O)[C@@H](c1ccccc1)N1CCn2c(C3CC3)nc(Cl)c2[C@@H]1CCc1ccc(Cl)c(F)c1")
7.96
>>> numeric_readout("CCc1nc(Cl)c2n1CCN([C@@H](C(=O)NC)c1ccccc1)[C@H]2CCc1cccc(OC(F)F)c1")
8.70

(I) CNC(=O)[C@@H](c1ccccc1)N1CCn2c(SC)nc(Cl)c2[C@@H]1CCc1ccc(C(F)(F)F)c(F)c1F
(II) CNC(=O)[C@@H](c1ccccc1)N1CCn2c(C(F)(F)F)nc(C)c2[C@@H]1CCc1ccc(C(F)(F)F)cc1 [Example 13a]
*Q* Higher pIC50: I or II ? Lab log: write the label of the selected item as the result.
*A* II
(II: 8.10, I: 7.68)

###

Target: human orexin-1 receptor (Homo sapiens)
Construct: expressed in transfected cells; host or cells: Chinese hamster ovary (CHO) cells
Sequence (O43613 1-425): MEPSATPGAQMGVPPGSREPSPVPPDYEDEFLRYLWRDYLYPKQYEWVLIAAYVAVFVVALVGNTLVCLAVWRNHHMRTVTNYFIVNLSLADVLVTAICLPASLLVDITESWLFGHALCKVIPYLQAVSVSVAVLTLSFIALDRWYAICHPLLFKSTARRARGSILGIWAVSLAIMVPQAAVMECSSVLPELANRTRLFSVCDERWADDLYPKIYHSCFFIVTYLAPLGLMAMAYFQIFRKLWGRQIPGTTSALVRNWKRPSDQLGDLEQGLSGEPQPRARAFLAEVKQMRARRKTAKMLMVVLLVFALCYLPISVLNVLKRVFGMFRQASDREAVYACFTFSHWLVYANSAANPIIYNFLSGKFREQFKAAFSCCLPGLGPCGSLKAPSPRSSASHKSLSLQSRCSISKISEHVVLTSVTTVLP
Test: FLIPR calcium assay of orexin receptor antagonistic activity, CHO cells expressing the human orexin-1 receptor
Type: cell-based
Settings: 3 nM orexin-A as agonist; normalized using IC50 of on-plate reference compound (asterisk); read-out: OX1 IC50 (in nM), normalized value
PARAMETER: IC50 (nM)

Here's what some known entries look like.
>>> numeric_readout("CCOc1nc(C(F)(F)F)c2n1CCN([C@@H](C(=O)NC)c1ccccc1)[C@H]2CCc1ccc(C(F)(F)F)cc1")
3540
>>> numeric_readout("CCc1nc(S(C)(=O)=O)c2n1CCN([C@@H](C(=O)NC)c1ccccc1)[C@H]2CCc1ccc(C(F)(F)F)cc1")
1680
>>> numeric_readout("CCc1nc(C(F)(F)F)n2c1[C@H](CCc1ccc(C(F)(F)F)cc1)N([C@@H](C(=O)NC)c1ccccc1)CC2")
505

(P) CCc1nc(C2CC2)n2c1C(CCc1ccc(C(F)(F)F)c(F)c1)N(C(C(=O)NC)c1ccccc1)CC2 (centres unmarked)
(Q) CNC(=O)[C@@H](c1ccccc1)N1CCn2c(C3CC3)nc(Cl)c2[C@@H]1CCc1cccc(C(F)(F)F)c1
*Q* Lower value of IC50 belongs to which: P or Q ? I would appreciate it if you answered with the label of your choice.
*A* Q
